tested.target: T1, 4H3753-AA
T1 chain: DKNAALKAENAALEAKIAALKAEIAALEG
method: two-hybrid library CCmax;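 note: natural log of median RNA to DNA barcode read ratio; higher means stronger binding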
test.context: mean of both orientations
recorded.endpoint: interaction score
Give only the figure.

binder	numeric.value
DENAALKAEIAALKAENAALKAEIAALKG [4H1626-AA]	-1.54
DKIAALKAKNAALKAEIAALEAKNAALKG [4H3016-AA]	0.667
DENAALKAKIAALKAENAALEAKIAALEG [4H1877-AA]	-1.7
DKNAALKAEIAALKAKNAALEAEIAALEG [4H3697-AA]	-1.79
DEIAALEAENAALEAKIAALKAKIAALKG [4H174-AA]	1.06
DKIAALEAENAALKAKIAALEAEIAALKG [4H2274-AA]	-1.17
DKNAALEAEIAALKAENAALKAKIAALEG [4H3165-AA]	-1.55
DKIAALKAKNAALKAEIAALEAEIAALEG [4H3009-AA]	1.09
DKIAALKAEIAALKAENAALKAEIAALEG [4H2649-AA]	-1.64
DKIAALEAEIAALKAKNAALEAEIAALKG [4H2162-AA]	-1.93

Data point: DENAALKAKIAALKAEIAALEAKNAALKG [4H1864-AA] ; interaction score = 0.231

Data point: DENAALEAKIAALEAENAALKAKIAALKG [4H1310-AA] ; interaction score = -1.37

Data point: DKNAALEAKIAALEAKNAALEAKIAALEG [4H3381-AA] ; interaction score = -1.71

Data point: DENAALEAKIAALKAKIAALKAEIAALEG [4H1385-AA] ; interaction score = -0.82
